Taken from paper PMC11556372.

# ASSAY: in vitro
# CONDITIONS: human, microsomes
OBSERVABLE: half-life

get_value(item= `N#C[C@@]1(c2ccc3c(N)ncnn23)O[C@H](CO)[C@@H](O)[C@H]1O` , readout=half-life) returns > 8 h

###

# System: three human carboxyesterases
# ASSAY: in vitro
# Format: in vitro ADME
# CONDITIONS: pH 7.4
OBSERVABLE: half-life at 2 μM

For `CC(C)C(=O)OC[C@H]1O[C@@](C#N)(c2ccc3c(N)ncnn23)[C@H](O)[C@@H]1O` on three human carboxyesterases, measured half-life at 2 μM was < 4.3 min

###

# ASSAY: in vivo
# CONDITIONS: nonhuman primates, iv
OBSERVABLE: half-life

get_value(item= `N#C[C@@]1(c2ccc3c(N)ncnn23)O[C@H](CO)[C@@H](O)[C@H]1O` , readout=half-life) returns 2.6 to 2.7 h

###

# System: SARS-CoV-2-Nluc
# ASSAY: in vitro
# CONDITIONS: human
OBSERVABLE: selectivity ratio

get_value(item= `CCC(CC)COC(=O)[C@H](C)N[P@](=O)(OC[C@H]1O[C@@](C#N)(c2ccc3c(N)ncnn23)[C@H](O)[C@@H]1O)Oc1ccccc1` , readout=selectivity ratio) returns ≥ 300

###

# ASSAY: in vitro
# Type: in vitro ADME
# CONDITIONS: human, Caco-2, Caco-2 efflux ratio
OBSERVABLE: efflux ratio at 2 h

get_value(item= `CC(C)C(=O)OC[C@H]1O[C@@](C#N)(c2ccc3c(N)ncnn23)[C@H](O)[C@@H]1O` , readout=efflux ratio at 2 h) returns < 3

###

# System: SARS-CoV-2 WA1
# ASSAY: SARS-CoV-2 nucleoprotein ELISA in A549-hACE2-TMPRSS2 cells, WA1
# Format: cell-based
# CONDITIONS: Severe acute respiratory syndrome coronavirus 2, A549-hACE2-TMPRSS2, read-out: EC50 ± SD, WA1 (n = 2), reference run above Omicron BA.2.12.1, BA.4, BA.5
The compounds listed here are annotated with their pEC50.
When answering, recall that pEC50 equals minus log10 of the concentration in mol/L, and write that number alone.

For orientation, consider the following solved cases.
{"MOLECULE SMILES": "CCC(CC)COC(=O)[C@H](C)N[P@](=O)(OC[C@H]1O[C@@](C#N)(c2ccc3c(N)ncnn23)[C@H](O)[C@@H]1O)Oc1ccccc1", "TESTED TARGET": "SARS-CoV-2 WA1", "pEC50": 6.80}
{"MOLECULE SMILES": "N#C[C@@]1(c2ccc3c(N)ncnn23)O[C@H](CO)[C@@H](O)[C@H]1O", "TESTED TARGET": "SARS-CoV-2 WA1", "pEC50": 5.13}

# next compound below
For `CC(C)C(=O)OC[C@H]1O[C@@](C#N)(c2ccc3c(N)ncnn23)[C@H](O)[C@@H]1O` on SARS-CoV-2 WA1, measured pEC50 was 5.80
